test system: G-clamp-N3 (biotin conjugate); experiment: pull-down binding Z-score (relative to library population); higher = stronger binding; conditions: RNA library: Library-1 (pre-miRNA loops + repeats)
Quantity measured: pull-down binding Z-score
// response body must contain only the number

Entry sequence | pull-down binding Z-score
AGGUAGUGUGAUUACCCAACCUACU [hsa-mir-93] | 0.373
GUCAGUCCCAAUCUGAAUCCCACCAAAAUAGGUGGUAGAGGGUUGC [hsa-mir-4290] | -1.14

Read off the recorded pull-down binding Z-score for UCUGCAGGUUCGCACUGAUGCCUGCUCG [hsa-mir-6726]
0.44

###

Examples of sequences with documented pull-down binding Z-score follow.
test system: TO-3-N3 (biotin conjugate); assay: pull-down binding Z-score (relative to library population); higher = stronger binding; conditions: RNA library: Library-2

For orientation, consider the following solved cases.
Entry sequence | pull-down binding Z-score
CGCAGGGAAUGGAUAAUCUUGCCUGCG | -0.486
GUCAGUGAAACACAGGGAACAGAGAAACUGAC [IAV_invivo_PB2_1_Motif_24+IAV_invivo_PB2_1_Motif_24] | -0.496

Moving on to another sequence below.
Give reported pull-down binding Z-score for CGUGCGCCAGUGGAG [hsa-mir-6089-2_6089-1] (TO-3-N3 (biotin conjugate))
0.0799

###

tested on: TO-3-N3 (biotin conjugate); test: pull-down binding Z-score (relative to library population); higher = stronger binding; settings: RNA library: Library-2
Decide using pull-down binding Z-score: a value greater than or equal to -0.3 is criterion met, a smaller one is criterion not met.

# example entries with known answers
Entry sequence | Label value
CAGUUUACUCACACCUUUUGCUCGUUGCUGCUG | criterion met
AAGACACUAUCUGACAACAACAGGGCUCUU [hsa-mir-550b-2] | criterion met
AUGUCAUAUUGGAGUUGGACUGCAGGGCUUCCUUUACACAAUAAAUAUUGUAUGAAGUGCUGAUGUAACCUUUACUGCAGCAUGACAU [hsa-mir-3976] | criterion met
AGGCUGUCUUCAUUCCCUCUUGACCACCC [hsa-mir-6795] | criterion met

Is it the case that CUAACAGGCCCCUGUCACCAUUAG [hsa-mir-5579] has pull-down binding Z-score reaching or exceeding -0.3?
criterion not met

Is it the case that GUGAGCGCAGGUCUUUGGCAC [hsa-mir-4450] has pull-down binding Z-score reaching or exceeding -0.3?
criterion met

In plain terms: is recorded pull-down binding Z-score at least -0.3 for AGUGGUGCAAUCUCAGUUCACU [hsa-mir-3135a] ?
criterion met

Please indicate if the recorded pull-down binding Z-score for UUUGCUAUUACUUUUAAUGGUAAA [hsa-mir-548aj-2] meets or exceeds -0.3.
criterion not met

Does the reported pull-down binding Z-score for UCUUUCAUUUUGGAUUUGACU [hsa-mir-766] fall at or above the -0.3 mark?
criterion met

Reported pull-down binding Z-score at or above -0.3? UGAGCUGUGAUGUUGCUCUCGAGCUGG [hsa-mir-769]
criterion met

Reported pull-down binding Z-score reaches at least -0.3 for AUGGUAAGUGCGAUACUUACCUG [U1snRNP5ss-24] ?
criterion not met

Does the reported pull-down binding Z-score for GAGGGGCUUACUGCCCUGUGGGGCUCUCUGGACCCAGUGCCAUGCUUCUC [hsa-mir-6728] fall at or above the -0.3 mark?
criterion met

Can UGUGUGUCGCUCCGGGUCCACG [hsa-mir-574] be said to have pull-down binding Z-score at or above -0.3?
criterion met

###

system: G-clamp-N3 (biotin conjugate); test: pull-down binding Z-score (relative to library population); higher = stronger binding; conditions: RNA library: Library-1 (pre-miRNA loops + repeats)
Reported pull-down binding Z-score values are given for each entry in this list.
Returns: the value as a bare number; no unit string appended.

Tell me measured pull-down binding Z-score for GGAGGCCCCGCUCUGCUGCCGACCCUGUGGAGCGGAGGGUGAAGCCUCC [hsa-mir-3180-4] please.
1.15

# return recorded pull-down binding Z-score for entry GAUGUAUCCAAGUACCCUGUGUUAUUUGGCAAUAAAUACAUC [hsa-mir-1298]
-1.2

###

tested on: TO-3-N3-2 (biotin conjugate); assay: pull-down binding Z-score (relative to library population); higher = stronger binding; details: RNA library: Library-2
Response field class: enum, chosen by comparing pull-down binding Z-score against range A: < -0.4; range B: ≥ -0.4 and < 0.003; range C: ≥ 0.003

Worked examples follow.
Entry sequence | Label value
AUAGUUUUAGGGCAGGGAUUUUGCCCACAAGGAGGUAACUAU [hsa-let-7d] | range C
GAGGUAAGUAUGAUACUUACCUG [U1snRNP5ss-8] | range B
AUUGGCUUGGAUUCUGCAAAGCCU [hsa-mir-7151] | range C
AUCUAUUCCAGAAGAU [hsa-mir-4696] | range A
UCAGCACCUGAACGCCAAGGCUGG [hsa-mir-3150a] | range A
GCCACGUAUAAACCAAAUACCUGGUGUAUACGUUGU | range B
CCUUCGCUUUAUUUGUGACGAAUC [hsa-mir-154] | range B
UUUUGCAUUUAAAGUAAUGGCCAAA [hsa-mir-548ay] | range B

Any idea which band AAGGGAGGGGCGGGUCGGGAA [G4_2A2_NRAS] is in?
range C

Just checking, what class would you give UCAGACACAUCAGAUCCCUUAUCUGUAAAAUGGGCAUGA [hsa-mir-640] here?
range B

Hi, small favor: classify CGGGCCCCUCCCCUCAAUGGGCCCG [hsa-mir-5685] by its pull-down binding Z-score when you get a moment.
range B

Looking at GGGCCAUGUCUGUGAGGGCCCA [hsa-mir-4294] , which class would you pick?
range B

The entry to classify is GGGAAUAUAAUCUC [IAV_invivo_NA_6_Motif_2+IAV_invivo_NA_6_Motif_2] ; which class holds it?
range C

Quick check: band for CUCAGCCUGGAAAAAGCUGAG [hsa-mir-4765]
range A

Textbook exercise: identify the category of the sequence given here, "GUUUUAAUUAUGCUUAUUAUCUUUUGGUUCUCACUUGAACUGCAAGAUCAUAAUGAAAC" , according to its measured value.
range B

Which bin should I file CAUAUGUAUGUAUGUAUGUCUGUUACACAUAUG [hsa-mir-3688-1] under?
range B

Please classify: CAUGAGCCCUUUGGAAAGGUCUCGUG [hsa-mir-4711]
range B

Would you mind sorting UGUAAGCACAAGCUGAUGAGUACGAACUUAUGUACUCAUUCGUUUCGGAAGAGACAGGUACGUUAAUAGUUAAUAGCGUACUUCUUUUUCUUGCUUUCG [DMSMaPseq_invitro_SARS-CoV-2_Multi_80_ComplexLevel_1] into the appropriate category?
range A

Exam item: assign "GAUUUUGGGACUACCAACUC" to the correct category.
range B

Hey, which category is "CCGAAAUUAUGUCUUUACUGGUUAUCGUGUAACUAAAAACAGUAAAGUACAAAUAGG" in, do you know?
range B

Where would AUCUUCUGCAGGCUGCUUACGGUUUCGUCCGUGUUGCAGCCGAUCAUCAGCACAUCUAGGUUUUGUCCGGGUGUGACCGAAAGGUAAGAU [DMSMaPseq_invitro_SARS-CoV-2_Multi_2_ComplexLevel_1] land among the classes by reported pull-down binding Z-score?
range A

Kindly state the category for this sequence: CUGUGGGUUUUACACUUAAAAACACAG [DMSMaPseq_invitro_SARS-CoV-2_Motif_239]
range B

// bin(item) where item = ACUAAAAAUGU [SHAPE_invitro_SARS-CoV-2_Motif_381]
range B

Consider CUGUGCAGGGCCAACUGUGCACAC [hsa-mir-3681] . To which pull-down binding Z-score class does it belong?
range C

Sort into band: CCCUGAACACAAUGACCAAAGAUGCUGAGAGAGGG [IAV_invivo_PB1_2_Motif_12+IAV_invivo_PB1_2_Motif_12]
range C

Any idea which band UCUUAGACUAUUACAAGA [hsa-mir-3672] is in?
range C

Exercise: read the entry GCUGAACCCCUGCCCCUGGAGCCCCCAGCAGGGCCCUC [hsa-mir-7162] and state which class it falls under.
range C

// bin(item) where item = "CCUACUAAAAAGG"
range C

Lab note: which band did GGCAGAAAUGUC [hsa-mir-8053] land in?
range B

###

Listed below: pull-down binding Z-score values for each entry.
tested on: TO-N3-2 (biotin conjugate); test: pull-down binding Z-score (relative to library population); higher = stronger binding; conditions: RNA library: Library-2
Answer as a number with no unit attached.

Sample answers from the record:
Entry sequence | Quantity measured | Observed measurement
GUACGAUCGAGUGUAC [DMSMaPseq_invitro_SARS-CoV-2_Motif_538] | pull-down binding Z-score | 0.0595
CUCUCGUGUCCACUAGCAGGCAGGUUUUCUGACACAGG [hsa-mir-604] | pull-down binding Z-score | 0.566
AGUGAGUACACUGGUAAUUACCAGUGUGGUCACU [SHAPE_invivo_SARS-CoV-2_Motif_119] | pull-down binding Z-score | -1.01
GGGAGUCUUCGAGCUCUC [IAV_invivo_NP_5_Motif_24+IAV_invivo_NP_5_Motif_24] | pull-down binding Z-score | -0.555

Consider the sequence CCUUGCACCUAAUAUGAUGGUAACAAACAAUACCUUCACACUCAAAGGCGGUGCACCAACAAAGGUUACUUUUGGUGAUGACACUGUGAUAGAAGUGCAAGG [SHAPE_invivo_SARS-CoV-2_Multi_7_ComplexLevel_1] . State its measured pull-down binding Z-score.
-0.526

Using the record for CGAGAAGCGCCUGCGUCUCCCAUUUUCG [hsa-mir-3944] , state its measured pull-down binding Z-score.
1.37

Provide measured pull-down binding Z-score value, entry: GGGUGUAUGGUAUAGGGGUAGCCU [hsa-mir-3137]
2.42

Give the reported pull-down binding Z-score for this sequence. GCUGCUGCCCCAGAGGCCCAGCAGGUGUCCAGAAC [hsa-mir-6750]
1.93

State, in one line, measured pull-down binding Z-score of GGUUCUUCCCGAAGC [hsa-mir-4710]
-0.359

Using the record for GCAGUGUCGUGGUCACAGCUUGCUGC [hsa-mir-1273h] , state its measured pull-down binding Z-score.
1.12

Give pull-down binding Z-score for CGGGCUGAUUGCGCUAACAGUGGCCCC [hsa-mir-4783]
1.12

Data provenance: the supplement of paper PMC11865577
